From: patent US20060100154A1

assay: Relative hydrophobicity by elution from RP-18 HPLC column; assay type: physicochemical; details: percent of buffer B in which the analog was eluted from RP-18 column
Measured endpoint: Hydrophobicity (% B)
Value and unit, in that order.

Ask | Output Hydrophobicity (% B) of CC(C)C[C@H](NC(=O)[C@@H](CCCCNC(=O)c1cc(O)c2c(c1)C(=O)c1cc(O)cc(O)c1C2=O)NC(=O)[C@H](Cc1ccc(O)cc1)NC(=O)[C@H](CO)NC(=O)[C@H](Cc1c[nH]c2ccccc12)NC(=O)[C@H](Cc1c[nH]cn1)NC(=O)[C@@H]1CCC(=O)N1)C(=O)N[C@@H](CCCNC(=N)N)C(=O)N1CCC[C@H]1C(=O)NCC(N)=O [[D-Lys^6(Emo)]GnRH]
Reply | 66 % B

Ask | Output Hydrophobicity (% B) of CC(C)C[C@H](NC(=O)[C@@H](CCCCN)NC(=O)[C@H](Cc1ccc(O)cc1)NC(=O)[C@H](CO)NC(=O)[C@H](Cc1c[nH]c2ccccc12)NC(=O)[C@H](Cc1c[nH]cn1)NC(=O)[C@@H]1CCC(=O)N1)C(=O)N[C@@H](CCCNC(=N)N)C(=O)N1CCC[C@H]1C(=O)NCC(N)=O [[D-Lys^6]GnRH]
Reply | 37 % B

Ask | Output Hydrophobicity (% B) of CC(C)C[C@H](NC(=O)[C@@H](CCCCNC(=O)CCCC(=O)OCc1ccc2c(c1)C(=O)c1ccccc1C2=O)NC(=O)[C@H](Cc1ccc(O)cc1)NC(=O)[C@H](CO)NC(=O)[C@H](Cc1c[nH]c2ccccc12)NC(=O)[C@H](Cc1c[nH]cn1)NC(=O)[C@@H]1CCC(=O)N1)C(=O)N[C@@H](CCCNC(=N)N)C(=O)N1CCC[C@H]1C(=O)NCC(N)=O [[D-Lys^6(AntrQ)]GnRH]
Reply | 84 % B

Ask | Output Hydrophobicity (% B) of CC(C)C[C@H](NC(=O)[C@@H](CCCCNC(=O)CCNC1=C(Cl)C(=O)c2ccccc2C1=O)NC(=O)[C@H](Cc1ccc(O)cc1)NC(=O)[C@H](CO)NC(=O)[C@H](Cc1c[nH]c2ccccc12)NC(=O)[C@H](Cc1c[nH]cn1)NC(=O)[C@@H]1CCC(=O)N1)C(=O)N[C@@H](CCCNC(=N)N)C(=O)N1CCC[C@H]1C(=O)NCC(N)=O [[D-Lys^6(NQ)]GnRH]
Reply | 59 % B
